Every entry's value here was drawn from ChEMBL document CHEMBL1138205.

Here we list compounds with their recorded log10 IC50 when tested on Acetylcholinesterase (Torpedo californica, UniProt P04058).
Sequence (P04058 whole entry): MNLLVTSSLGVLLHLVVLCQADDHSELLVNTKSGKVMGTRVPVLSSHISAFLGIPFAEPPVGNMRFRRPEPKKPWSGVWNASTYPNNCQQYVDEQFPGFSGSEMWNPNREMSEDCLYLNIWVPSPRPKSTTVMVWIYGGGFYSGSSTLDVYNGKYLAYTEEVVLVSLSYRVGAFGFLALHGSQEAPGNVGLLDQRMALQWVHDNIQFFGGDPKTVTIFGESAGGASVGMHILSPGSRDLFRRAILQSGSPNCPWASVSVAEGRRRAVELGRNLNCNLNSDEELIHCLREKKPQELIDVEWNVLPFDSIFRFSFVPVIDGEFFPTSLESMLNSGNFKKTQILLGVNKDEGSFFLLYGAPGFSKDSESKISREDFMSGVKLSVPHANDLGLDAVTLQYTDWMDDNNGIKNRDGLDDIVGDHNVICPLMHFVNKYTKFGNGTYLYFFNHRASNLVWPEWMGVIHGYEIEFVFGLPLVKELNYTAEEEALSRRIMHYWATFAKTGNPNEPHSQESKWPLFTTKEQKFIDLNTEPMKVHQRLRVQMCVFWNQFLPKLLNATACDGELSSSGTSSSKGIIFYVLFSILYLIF
Response schema: value (number) is log10 of IC50 in units of µM.

Answered cases to consult:
CCN(CC)C(C)C(=O)N1c2ccccc2Sc2ccccc21 (stereo unspecified) | 1.54
COc1cc(C(=O)NCCCCCC(=O)NNc2c3c(nc4ccccc24)CCCC3)cc(OC)c1OC | -1.25
COc1cc(C(=O)NCCCCCCC(=O)NNc2c3c(nc4ccccc24)CCCC3)cc(OC)c1OC | -1.60
COc1cc(CCC(=O)NCCCC(=O)NNc2c3c(nc4ccccc24)CCCC3)cc(OC)c1OC | -0.80
COc1cc(CCC(=O)NCCCCCC(=O)NNc2c3c(nc4ccccc24)CCCC3)cc(OC)c1OC | -1.40

We next turn to a different compound, shown below.
Q: Specify log10 IC50 for "COc1cc(C(=O)NCCCCCCCC(=O)NNc2c3c(nc4ccccc24)CCCC3)cc(OC)c1OC" , system Acetylcholinesterase (Torpedo californica, UniProt P04058).
Ans: -1.76

----------
- assayed.system: UniProtKB P06276
- procedure.summary: Inhibition of human plasma BChE
Attribute: IC50
Could you give me the number in nM? Just the number is fine.

Some compounds with known IC50 results, for comparison:
COc1cc(C(=O)NCCCC(=O)NNc2c3c(nc4ccccc24)CCCC3)cc(OC)c1OC | 7.13
COc1cc(CCC(=O)NCCC(=O)NNc2c3c(nc4ccccc24)CCCC3)cc(OC)c1OC | 6.03
COc1cc(CCC(=O)NCCCCCC(=O)NNc2c3c(nc4ccccc24)CCCC3)cc(OC)c1OC | 0.141
COc1cc(C(=O)NCCCCCC(=O)NNc2c3c(nc4ccccc24)CCCC3)cc(OC)c1OC | 0.969
COc1cc(CCC(=O)NNc2c3c(nc4ccccc24)CCCC3)cc(OC)c1OC | 12.1
COc1cc(C(=O)NCC(=O)NNc2c3c(nc4ccccc24)CCCC3)cc(OC)c1OC | 27.6
CCN(CC)C(C)C(=O)N1c2ccccc2Sc2ccccc21 (stereo not given) | 3370
COc1cc(CCC(=O)NCCCCC(=O)NNc2c3c(nc4ccccc24)CCCC3)cc(OC)c1OC | 0.139
COc1cc(C(=O)NCCC(=O)NNc2c3c(nc4ccccc24)CCCC3)cc(OC)c1OC | 12.8
COc1cc(CCC(=O)NCCCC(=O)NNc2c3c(nc4ccccc24)CCCC3)cc(OC)c1OC | 0.226

Q: For the compound "COc1cc(C(=O)NCCCCCCCC(=O)NNc2c3c(nc4ccccc24)CCCC3)cc(OC)c1OC" , report IC50.
Ans: 0.293

Q: Indicate its recorded IC50; the compound in question is "COc1cc(C(=O)NCCCCC(=O)NNc2c3c(nc4ccccc24)CCCC3)cc(OC)c1OC"
Ans: 1.68

Q: Using known records, supply IC50 for "COc1cc(C(=O)NNc2c3c(nc4ccccc24)CCCC3)cc(OC)c1OC"
Ans: 1.7

Q: Give the reported value of IC50 for this record: "COc1cc(CCC(=O)NCC(=O)NNc2c3c(nc4ccccc24)CCCC3)cc(OC)c1OC"
Ans: 24

Q: Give a short answer stating reported IC50 for "COc1cc(C(=O)NCCCCCCC(=O)NNc2c3c(nc4ccccc24)CCCC3)cc(OC)c1OC" .
Ans: 0.523

----------
- assayed.system: Acetylcholinesterase (Homo sapiens, UniProt P22303)
- Sequence (P22303 whole entry): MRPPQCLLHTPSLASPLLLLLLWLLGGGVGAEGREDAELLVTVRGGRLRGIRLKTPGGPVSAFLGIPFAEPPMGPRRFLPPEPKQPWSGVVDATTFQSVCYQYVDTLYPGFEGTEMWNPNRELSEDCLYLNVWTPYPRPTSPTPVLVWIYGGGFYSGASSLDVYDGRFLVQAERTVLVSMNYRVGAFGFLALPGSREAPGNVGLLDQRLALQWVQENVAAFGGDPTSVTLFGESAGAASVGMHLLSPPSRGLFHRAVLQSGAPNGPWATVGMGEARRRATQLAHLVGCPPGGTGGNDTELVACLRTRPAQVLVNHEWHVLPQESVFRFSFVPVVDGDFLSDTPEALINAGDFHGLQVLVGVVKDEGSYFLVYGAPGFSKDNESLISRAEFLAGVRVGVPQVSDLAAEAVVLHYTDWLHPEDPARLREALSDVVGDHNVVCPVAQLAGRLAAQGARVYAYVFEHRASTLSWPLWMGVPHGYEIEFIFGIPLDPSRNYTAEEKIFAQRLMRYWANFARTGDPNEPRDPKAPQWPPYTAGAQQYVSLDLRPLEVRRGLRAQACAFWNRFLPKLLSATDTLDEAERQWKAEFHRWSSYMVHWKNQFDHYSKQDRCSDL
Rule: IC50 below 100 nM gives 1, anything at or above gives -1.

Examples from the recorded data:
COc1cc(C(=O)NNc2c3c(nc4ccccc24)CCCC3)cc(OC)c1OC | -1
COc1cc(CCC(=O)NCCC(=O)NNc2c3c(nc4ccccc24)CCCC3)cc(OC)c1OC | -1
COc1cc(CCC(=O)NNc2c3c(nc4ccccc24)CCCC3)cc(OC)c1OC | -1
COc1cc(CCC(=O)NCCCC(=O)NNc2c3c(nc4ccccc24)CCCC3)cc(OC)c1OC | 1

With those in mind, consider the next compound.
Q: Is 100 nM strictly greater than the compound's reported IC50? compound: "COc1cc(C(=O)NCCCCCC(=O)NNc2c3c(nc4ccccc24)CCCC3)cc(OC)c1OC"
Ans: 1

----------
So I've got IC50 readings for Acetylcholinesterase (Electrophorus electricus, UniProt O42275), take a look.
State the answer as a number, implicitly in nM.

Check out these entries, answers already filled in.
COc1cc(CCC(=O)NCCCCCC(=O)NNc2c3c(nc4ccccc24)CCCC3)cc(OC)c1OC | 20.2
COc1cc(CCC(=O)NCC(=O)NNc2c3c(nc4ccccc24)CCCC3)cc(OC)c1OC | 122

Q: State IC50 on Acetylcholinesterase (Electrophorus electricus, UniProt O42275). Entry: "COc1cc(CCC(=O)NCCC(=O)NNc2c3c(nc4ccccc24)CCCC3)cc(OC)c1OC"
Sequence (O42275 whole entry): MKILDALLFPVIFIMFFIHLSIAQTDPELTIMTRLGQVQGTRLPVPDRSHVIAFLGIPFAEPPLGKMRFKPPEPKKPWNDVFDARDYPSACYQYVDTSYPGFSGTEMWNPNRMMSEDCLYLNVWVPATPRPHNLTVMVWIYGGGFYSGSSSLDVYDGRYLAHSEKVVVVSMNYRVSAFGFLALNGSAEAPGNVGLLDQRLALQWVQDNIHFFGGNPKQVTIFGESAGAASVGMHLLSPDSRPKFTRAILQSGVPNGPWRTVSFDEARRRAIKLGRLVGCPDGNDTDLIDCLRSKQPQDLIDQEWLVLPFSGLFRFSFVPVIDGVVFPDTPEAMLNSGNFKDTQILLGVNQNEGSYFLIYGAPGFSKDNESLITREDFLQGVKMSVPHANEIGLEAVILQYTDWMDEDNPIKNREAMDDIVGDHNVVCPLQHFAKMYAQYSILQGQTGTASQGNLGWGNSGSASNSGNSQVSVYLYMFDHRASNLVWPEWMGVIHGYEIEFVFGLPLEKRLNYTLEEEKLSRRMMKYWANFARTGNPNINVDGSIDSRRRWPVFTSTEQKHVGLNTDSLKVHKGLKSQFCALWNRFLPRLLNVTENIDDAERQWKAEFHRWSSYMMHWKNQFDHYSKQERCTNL
Ans: 102

Q: State, for Acetylcholinesterase (Electrophorus electricus, UniProt O42275), measured IC50 of the molecule listed here: "COc1cc(C(=O)NCCCCCCCC(=O)NNc2c3c(nc4ccccc24)CCCC3)cc(OC)c1OC"
Ans: 3.25

Q: // fetch IC50 for "COc1cc(C(=O)NNc2c3c(nc4ccccc24)CCCC3)cc(OC)c1OC" ; system: Acetylcholinesterase (Electrophorus electricus, UniProt O42275)
Ans: 2260

Q: Under Acetylcholinesterase (Electrophorus electricus, UniProt O42275): report IC50 of "COc1cc(C(=O)NCCCCCCC(=O)NNc2c3c(nc4ccccc24)CCCC3)cc(OC)c1OC" .
Ans: 9.76

Q: Recall the reported IC50 of "COc1cc(C(=O)NCC(=O)NNc2c3c(nc4ccccc24)CCCC3)cc(OC)c1OC" when tested on Acetylcholinesterase (Electrophorus electricus, UniProt O42275).
Ans: 104

----------
- assayed.system: Cholinesterases; ACHE & BCHE (Homo sapiens) (UniProt P06276+P22303)
- Sequence (P06276 whole entry, looked up): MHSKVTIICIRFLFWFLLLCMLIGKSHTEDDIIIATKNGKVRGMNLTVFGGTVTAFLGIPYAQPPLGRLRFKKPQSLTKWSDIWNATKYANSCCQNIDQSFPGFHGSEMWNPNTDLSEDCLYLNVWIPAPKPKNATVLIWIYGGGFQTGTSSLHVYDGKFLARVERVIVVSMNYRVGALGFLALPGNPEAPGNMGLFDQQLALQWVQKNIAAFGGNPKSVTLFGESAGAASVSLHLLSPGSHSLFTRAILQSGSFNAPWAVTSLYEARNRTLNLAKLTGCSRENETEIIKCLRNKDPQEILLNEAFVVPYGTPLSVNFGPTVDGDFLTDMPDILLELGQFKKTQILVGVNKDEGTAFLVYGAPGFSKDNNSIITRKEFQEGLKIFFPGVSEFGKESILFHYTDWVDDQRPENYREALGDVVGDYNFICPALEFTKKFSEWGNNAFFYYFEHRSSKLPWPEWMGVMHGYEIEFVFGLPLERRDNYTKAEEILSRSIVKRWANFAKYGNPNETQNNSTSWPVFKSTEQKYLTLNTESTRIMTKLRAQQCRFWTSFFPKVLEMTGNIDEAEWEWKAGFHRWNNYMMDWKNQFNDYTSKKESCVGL
- Sequence (P22303 whole entry, looked up): as the sequence (P22303 whole entry) above
- procedure.summary: Selectivity for human BChE over human AChE
Listing of entries alongside the reported Ratio IC50.
// return just the number, without any unit appended

// below: answered molecules
COc1cc(C(=O)NCCCCCCCC(=O)NNc2c3c(nc4ccccc24)CCCC3)cc(OC)c1OC | 17.9
COc1cc(CCC(=O)NCCC(=O)NNc2c3c(nc4ccccc24)CCCC3)cc(OC)c1OC | 22.4
COc1cc(CCC(=O)NCCCCCC(=O)NNc2c3c(nc4ccccc24)CCCC3)cc(OC)c1OC | 59.5
COc1cc(C(=O)NCCC(=O)NNc2c3c(nc4ccccc24)CCCC3)cc(OC)c1OC | 6.97
COc1cc(CCC(=O)NCCCC(=O)NNc2c3c(nc4ccccc24)CCCC3)cc(OC)c1OC | 319
COc1cc(C(=O)NCCCC(=O)NNc2c3c(nc4ccccc24)CCCC3)cc(OC)c1OC | 33.8
COc1cc(C(=O)NCCCCC(=O)NNc2c3c(nc4ccccc24)CCCC3)cc(OC)c1OC | 10.1
COc1cc(CCC(=O)NNc2c3c(nc4ccccc24)CCCC3)cc(OC)c1OC | 30.2

Next molecule, Ratio IC50 to be filled in.
Q: Check the records and state Ratio IC50 for CCN(CC)C(C)C(=O)N1c2ccccc2Sc2ccccc21 (centres undefined)
Ans: 12000

----------
For Acetylcholinesterase (Torpedo californica, UniProt P04058), measured pIC50 is reported for the entries below.
Reminder that pIC50 means the negative base-10 logarithm of the concentration expressed in mol/L.

These recorded examples may help you get a feel for the data.
COc1cc(CCC(=O)NCCCCC(=O)NNc2c3c(nc4ccccc24)CCCC3)cc(OC)c1OC | 6.99
COc1cc(C(=O)NCC(=O)NNc2c3c(nc4ccccc24)CCCC3)cc(OC)c1OC | 6.79
COc1cc(C(=O)NCCC(=O)NNc2c3c(nc4ccccc24)CCCC3)cc(OC)c1OC | 7.31

Consider the additional compound presented here.
Q: Please report the measured pIC50 for "COc1cc(CCC(=O)NCCC(=O)NNc2c3c(nc4ccccc24)CCCC3)cc(OC)c1OC" tested on Acetylcholinesterase (Torpedo californica, UniProt P04058).
Ans: 7.16

----------
- assayed.system: Acetylcholinesterase (Homo sapiens)
Recorded measurements of IC50, one per entry
Respond with the bare value in nM.

Worked cases, IC50 given:
COc1cc(C(=O)NCC(=O)NNc2c3c(nc4ccccc24)CCCC3)cc(OC)c1OC | 51.6
COc1cc(C(=O)NCCCCC(=O)NNc2c3c(nc4ccccc24)CCCC3)cc(OC)c1OC | 17
COc1cc(C(=O)NCCCC(=O)NNc2c3c(nc4ccccc24)CCCC3)cc(OC)c1OC | 241

Q: Report the value of IC50 obtained on Acetylcholinesterase (Homo sapiens) for "COc1cc(CCC(=O)NCCCCCC(=O)NNc2c3c(nc4ccccc24)CCCC3)cc(OC)c1OC" .
Ans: 8.39
